# Tested on: A549/ATCC NSCLC
# Assay Protocol: NCI-60 one-dose screen, 48 h
# Condition Label: 10 µM unless noted
This is part of a sample that, as a whole, favours compounds with a hit. Of some 83,000 tested, about 20% had one in any assay. Active and inactive are the calls of the source. How the source made its calls: active means growth percent below 10; inactive means the rest.
Form entry, call: pick from T = active, F = inactive

Here are 5 compounds together with their reported answers.
[[record]]
compound = "O=C1/C(=C/c2ccc(Oc3ccccc3)cc2)N=C(c2ccccc2)N1CCc1cccs1"
group_label = "F"

[[record]]
compound = "NC(=O)c1cc(I)ccc1NC(=O)COc1ccccc1"
group_label = "F"

[[record]]
compound = "COc1cc(-c2nc(Nc3nc4ccccc4[nH]3)nc(N)c2C#N)cc(OC)c1OC"
group_label = "F"

[[record]]
compound = "CCC(C)Oc1cc(/C=N/NC(=O)c2cnn3c2NC(c2ccccc2)C3)ccc1OC (stereo unspecified)"
group_label = "F"

[[record]]
compound = "CN1CCc2cccc3c2C1Cc1ccc(O)c(O)c1-3 (stereo unspecified)"
group_label = "F"


-- ask Hi, do you know how COC(=O)[C@@H]1CCCN1C(=O)[C@@H]1CCCN1C(=O)[C@@H](Cc1c[nH]c2ccccc12)NC(=S)Nc1cc(C(F)(F)F)cc(C(F)(F)F)c1 came out in this test?
-- reply F

-- ask Hi, do you know how O=C(c1cnn2c1NC(c1ccc(F)cc1)C2)N1CCCCC1 (stereo unspecified) came out in this test?
-- reply F

-- ask Hi, do you know how Clc1ccc(C2=NN(c3ccccc3)[C@H](c3cn(-c4ccccc4)nc3-c3ccccc3)C2)cc1 came out in this test?
-- reply F

-- ask Hi, do you know how Cc1c(NCC(=O)Nc2nc3ccccc3[nH]2)c(=O)n(-c2ccccc2)n1C came out in this test?
-- reply F

-- ask Hi, do you know how Cn1c2ccc(Cl)cc2c2nn(C(=O)c3ccccc3)c(=O)nc21 came out in this test?
-- reply F

-- ask Hi, do you know how O=C1c2[nH]cc(CN[C@@H]3CCCN3)c2C(=O)c2c1c(O)c1ccccc1c2O came out in this test?
-- reply T

-- ask Hi, do you know how COc1ccc2nc(-n3nc(C)cc3C)c(-n3nc(C)cc3C)nc2c1 came out in this test?
-- reply F

-- ask Hi, do you know how CN1CCN(CCCn2c3c(sc4ncccc43)c(=O)n3nnc(-c4ccccc4)c23)CC1 came out in this test?
-- reply T

-- ask Hi, do you know how O=C1C(Cl)=C(NCCCN2CCOCC2)C(=O)c2ccccc21 came out in this test?
-- reply F
